Sourced from PubChem BioAssay (NCI)

Exercise: state measured TGI for each of the compounds provided.
Test system: MCF7 breast
Test: NCI tumour cell line growth inhibition, 48 h

For the compound `COC(=O)/C(=C\c1c(-c2ccccc2)[nH]c2ccccc12)S(C)(=O)=O` , what TGI is on record?
18.2 µM

For the compound NC(CO)C(=O)NCC(=O)O (stereo unspecified) , what TGI is on record?
> 100 µM

For the compound `NC(=O)CNC(=O)[C@@H]1C[C@@H](OCCC(=O)O)CN1C(=O)OCc1ccccc1` , what TGI is on record?
> 100 µM

For the compound `Cc1c(N=NN(C)C)cc[n+]([O-])c1C` , what TGI is on record?
> 100 µM

For the compound CC#CCCCC1(C)CCCNC1=S (stereo unspecified) , what TGI is on record?
> 10 µM

For the compound `COc1ccc2nccc(/C=C/c3ccnc4ccc(OC)cc34)c2c1` , what TGI is on record?
> 38.5 µM
